Ref: patent US20190262327A1

Measured kon accompanies every entry in the list below.
# STUDY TARGET: T1, biotinylated synthetic human Amyloid beta 1-42 peptide (human, UniProt P05067 672-713, biotinylated (N-terminal biotin in Example 4))
# T1 construct: domain: Amyloid beta 1-42 peptide; Numbers 1-42 count on the Amyloid beta peptide, not on APP; also called biotinylated human Amyloid beta 1-42; N-terminal biotin Abeta 1-42
# T1 sequence (P05067 672-713 limits assumed): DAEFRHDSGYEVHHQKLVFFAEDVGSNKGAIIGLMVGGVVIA
# TEST DETAILS: SPR (ProteOn); biotinylated peptide on streptavidin chip, scFv in solution
// units = M⁻¹ s⁻¹; emit number, no label

BINDER	VALUE UNIT	kon
Abet0329 scFv (scFv, V domains shown, not shown: small tags and cut ends, Purified scFv expressed in E. coli) VH: EVQLLESGGGLVQPGGSLRLSCAASTFNLKRETMWWVRQAPGKGLEWVSVIGSHQERTSYADSVKGRFTISRDNSKNTLYLQMNSLRAEDTAVYYCAREWMDHSRPYYYYGMDVWGQGTLVTVSS VL: SYELTQPPSVSVSPGQTASITCSGHNVSDKWMTWYQQKPGQSPVLVIYRDDKRPSGIPERFSASNSGHTATLTISGTQATDEADYYCSSQDTVTRVFGGGTKLTVL	M⁻¹ s⁻¹	197000

Now, please, on to the next binder.
Documented kon of Abet0370 scFv (scFv, V domains shown, not shown: small tags and cut ends, Purified scFv expressed in E. coli) VH: EVQLLESGGGLVQPGGSLRLSCAASGFHFPMSAMWWVRQAPGKGLEWVSVIGETPERQAYADSVKGRFTISRDNSKSTLYLQMNSLRAEDTAVYYCAREWMDHSRPYYYYGMDVWGQGTLVTVSS VL: SYELTQPPSVSVSPGQTASITCTTPHFNSKFASWYQQKPGQSPVLVIYRDDKRPSGIPERFSASNSGHTATLTISGTQAMDEADYYCQAQDSTTRVFGGGTRLTVL : 119000
